Attribute Measured: melting point

Q: Give the reported melting point for this compound. CCN(CC)c1nc2ccc(OC(F)(F)F)cc2s1
Ans: 38 to 39 °C

Q: Give the reported melting point for this compound. CC1CCN(c2nc3ccc(OC(F)(F)F)cc3s2)CC1
Ans: 77 to 78 °C

Q: Give the reported melting point for this compound. FC(F)(F)Oc1ccc2nc(N3CCOCC3)sc2c1
Ans: 103 to 105 °C

Q: Give the reported melting point for this compound. FC(F)(F)Oc1ccc2nc(N3CCCCC3)sc2c1
Ans: 74 to 75 °C

Q: Give the reported melting point for this compound. FC(F)(F)Oc1ccc2nc(N3CCCC3)sc2c1
Ans: 129 to 130 °C

Q: Give the reported melting point for this compound. FC(F)(F)Oc1ccc2nc(Cl)sc2c1
Ans: 38 to 39 °C

Q: Give the reported melting point for this compound. CCNc1nc2ccc(OC(F)(F)F)cc2s1
Ans: 133 to 134 °C
